- measured target: Coagulation factor X (Homo sapiens)
- Sequence (P00742 41-179 limits assumed): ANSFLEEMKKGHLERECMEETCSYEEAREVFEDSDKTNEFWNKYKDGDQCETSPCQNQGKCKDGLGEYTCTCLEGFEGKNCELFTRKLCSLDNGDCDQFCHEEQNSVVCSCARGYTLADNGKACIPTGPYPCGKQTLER
- Sequence (P00742 235-488 limits assumed): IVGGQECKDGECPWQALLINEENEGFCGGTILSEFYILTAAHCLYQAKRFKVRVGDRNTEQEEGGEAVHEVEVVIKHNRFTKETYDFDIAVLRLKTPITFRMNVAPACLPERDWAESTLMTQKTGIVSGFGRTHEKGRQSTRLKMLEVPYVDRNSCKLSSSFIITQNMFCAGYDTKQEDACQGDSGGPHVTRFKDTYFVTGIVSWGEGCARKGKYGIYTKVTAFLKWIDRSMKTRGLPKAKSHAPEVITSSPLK
- method description: In vitro inhibitory activity against human Coagulation factor X
Recorded measurements of pKi, one per entry
# pKi is unitless: minus log10 of the molar concentration; print number only

1. COC(=O)N[C@H](CC1CCN(C(=N)N)CC1)C(=O)NCC(=O)N[C@H]1CCCN(C(=N)N)C1O (some centres not stated) : 7.64

Entry CCOC(=O)c1ccc(CCOC(=O)N[C@H](CC2CCN(C(=N)N)CC2)C(=O)NCC(=O)N[C@H]2CCCN(C(=N)N)C2O)cc1 (some centres not stated) ; pKi = 7.80

* * *

In this section we review reported pIC50 values for a set of compounds.
- measured target: UniProtKB P07477
- Sequence (P07477 whole entry): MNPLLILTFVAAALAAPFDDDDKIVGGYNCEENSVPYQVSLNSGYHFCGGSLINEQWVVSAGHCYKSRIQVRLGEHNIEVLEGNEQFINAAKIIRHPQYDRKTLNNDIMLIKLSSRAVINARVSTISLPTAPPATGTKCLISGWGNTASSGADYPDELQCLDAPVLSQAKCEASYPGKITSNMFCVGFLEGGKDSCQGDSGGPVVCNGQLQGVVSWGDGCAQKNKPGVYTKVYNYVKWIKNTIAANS
- method description: In vitro inhibition of human trypsin.
API: returns pIC50 as number; meaning -log10 of concentration in mol/L.

1. N=C(N)N1CCCC(C[C@@H](NS(=O)(=O)Cc2ccccc2)C(=O)NCC(=O)N[C@H]2CCCN(C(=N)N)C2O)C1 (single isomer, unassigned) : 6.92

compound N=C(N)NCCC[C@@H](NS(=O)(=O)Cc1ccccc1)C(=O)NCC(=O)N[C@H]1CCCN(C(=N)N)C1O (stereo not given in full) , pIC50 observed: 7.12

pIC50 reported for this compound N=C(N)N1CCC(C[C@@H](NS(=O)(=O)Cc2ccccc2)C(=O)NCC(=O)N[C@H]2CCCN(C(=N)N)C2O)CC1 (stereo not given in full) : 6.77

get_value(item= COC(=O)c1cccc(CS(=O)(=O)N[C@H](CC2CCN(C(=N)N)CC2)C(=O)NCC(=O)N[C@H]2CCCN(C(=N)N)C2O)c1 (stereo not given in full) , readout=pIC50) returns 6.84

Quick note, pIC50 for N=C(N)N1CCC(C[C@@H](NS(=O)(=O)Cc2cccc(C(=O)O)c2)C(=O)NCC(=O)N[C@H]2CCCN(C(=N)N)C2O)CC1 (stereo not given in full) landed at 6.68

Source: ChEMBL document CHEMBL1133331
